Target: CYP1A2 (Homo sapiens (Human), UniProt P05177)
Sequence (P05177 whole entry): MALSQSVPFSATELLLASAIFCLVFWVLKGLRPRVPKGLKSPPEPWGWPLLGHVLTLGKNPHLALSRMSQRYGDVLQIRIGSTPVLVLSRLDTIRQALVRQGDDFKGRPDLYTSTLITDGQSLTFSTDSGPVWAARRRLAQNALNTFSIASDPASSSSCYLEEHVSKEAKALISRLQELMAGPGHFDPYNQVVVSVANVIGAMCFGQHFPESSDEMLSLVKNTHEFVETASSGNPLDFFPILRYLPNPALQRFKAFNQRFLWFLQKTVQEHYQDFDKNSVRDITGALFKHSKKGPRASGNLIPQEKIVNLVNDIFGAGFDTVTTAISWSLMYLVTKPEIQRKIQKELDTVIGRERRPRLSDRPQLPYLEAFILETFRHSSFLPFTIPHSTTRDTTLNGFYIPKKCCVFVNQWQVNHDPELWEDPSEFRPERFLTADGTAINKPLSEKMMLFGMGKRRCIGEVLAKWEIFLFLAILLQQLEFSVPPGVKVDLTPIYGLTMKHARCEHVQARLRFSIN
Assay: CYP1A2 inhibition in human liver microsomes
Format: in vitro ADME
Details: pooled human liver microsomes, substrate Phenacetin; read-out: CYP1A2 IC50 mean
Experimental: The specific marker metabolites are measured with LC/MS/MS. The remaining enzymatic activities and inhibitory potency IC50 are determined. Microsomes are removed out of the −80° C. freezer to thaw on ice and 20 μL of the substrates solution added to the corresponding wells. […] Then 158 μL of the HLM working solution was added to all wells of the incubation plate. […] Finally 200 μL of the supernatant was transferred to 100 μL HPLC water, shaken for 10 min and analyzed by LC/MS/MS.
Experimental Endpoint: IC50

FC(F)(F)Oc1ccc(-c2ccc3nnc(C4CC4(F)F)n3n2)cc1 (stereo not shown) [Compound 46] | 1 to 15 µM
FC(F)(F)Oc1ccc(-c2cn3c(C(F)(F)F)nnc3cn2)cc1 [Compound 56] | < 1 µM
Fc1cc(-c2cn3c(C(F)F)nnc3cn2)cnc1OCC(F)(F)F [Compound 68] | > 30 µM

Read the next record carefully.
Task: # returns recorded IC50 (system: CYP1A2 (Homo sapiens (Human), UniProt P05177)) for Fc1cc(-c2cn3c(C(F)(F)F)nnc3cn2)cnc1OC1CC(F)(F)C1 [Compound 84]
Output: 1 to 15 µM
